experimental target: monkey GPC3 on HEK293T-monkey GPC3 cells (monkey)
protocol: FACS on HEK293T-monkey GPC3 cells
Reported values of Max MFI for individual entries
Record the value in MFI, omitting the unit from your answer.

binder	Max MFI / MFI
hAb006LH3L1d (antibody, human IgG1, V domains shown) VH: EVQLVQSGAEVKKPGSSVKVSCKASGYTFTDYEIHWVRQAPGQGLEWMGAIDPKTGNTAYNQKFMGRVTLTADKSTSTAYMELSSLRSEDTAVYYCTRYFSFAYWGQGTLVTVSS VL: DIVMTQTPLSLPVTPGEPASISCRSSQTFVHSNSNTYLQWYLQKPGQSPQLLIYKVSNRFSGVPDRFSGSGSGTDFTLKISRVEAEDVGVYYCFQGSHVPYTFGQGTKLEIK	84800
hAb003LH2L1a (antibody, human IgG1, V domains shown) VH: EVQLVQSGAEVKKPGSSVKVSCKASGYRFTDYEMHWVRQAPGQGLEWMGTIDPETGNTAYTQKFMDRVTITADKSTSTAYMELSSLRSEDTAVYYCTRGYSFTYWGQGTLVTVSS VL: DIVMTQTPLSLPVTPGEPASISCRSSQNIVHSDGNTYLQWYLQKPGQSPQLLIFKVSNRFSGVPDRFSGSGSGTDFTLKISRVEAEDVGVYYCFQGSHVPFTFGQGTKLEIK	23200

// query Max MFI value for entry hAb005LH3L1 (antibody, human IgG1, V domains shown) VH: EVQLVQSGAEVKKPGASVKVSCKASGYTFTDYEMHWVRQAPGQGLEWIGAIDPETGNTAYIQKFKGRATLTTDKSTSTAYMELRSLRSDDTAVYYCTRFYSYSHWGQGTTVTVSS VL: DIVMTQTPLSLPVTPGEPASISCRSSQSLVHSNGNTYLHWYLQKPGQSPQLLIYKVSNRFSGVPDRFSGSGSGTDFTLKISRVEAEDVGVYYCSQNTHVPPTFGGGTKVEIK
22200
